Listed below: normalised response values for each entry.
Tested on: CAL-51
Experiment: normalised response (% of control), CellTiter-Glo; higher = more viable cells (100 = DMSO, 0 = benzethonium chloride kill control)
Conditions: incubation time: 72 h

# Molecule, Assay System, normalised response (%)
measured = [
    ("COc1ccc(-c2ccc3c(N4CCOC[C@@H]4C)nc(N4CCOC[C@@H]4C)nc3n2)cc1CO [AZD8055] (1000 nM)", "CAL-51", 20.3),
    ("Nc1ncnc2c1c(COc1cccc(Cl)c1)nn2C1CCOCC1 (10 nM)", "CAL-51", 94.8),
    ("COc1ccccc1S(=O)(=O)Nc1ccc2c(c1)CN(C)C(=O)N2 [PFI-1] (10 nM)", "CAL-51", 102),
    ("CC(C)c1c(C(=O)Nc2ccccc2)c(-c2ccccc2)c(-c2ccc(F)cc2)n1CC[C@@H](O)C[C@@H](O)CC(=O)O [Atorvastatin] (1 nM)", "CAL-51", 89.8),
    ("C[C@]12CC[C@H](O)CC1=CC[C@@H]1[C@@H]2CC[C@]2(C)C(c3cccnc3)=CC[C@@H]12 [Abiraterone] (5 nM)", "CAL-51", 136),
    ("CN(C)CCN1C(=O)c2cccc3cc(N)cc(c23)C1=O [Amonafide] (10 nM)", "CAL-51", 123),
    ("O=C1NC(=O)[C@@H](c2cn3c4c(cccc24)CCC3)[C@@H]1c1c[nH]c2ccccc12 [Tivantinib] (0.1 nM)", "CAL-51", 87.5),
    ("Nc1nc(OCc2cc(Br)cs2)c2[nH]cnc2n1 [Lomeguatrib] (1000 nM)", "CAL-51", 103),
    ("CC(C)(C#N)c1cc(Cn2cncn2)cc(C(C)(C)C#N)c1 [Anastrozole] (1000 nM)", "CAL-51", 122),
    ("O=C1NC(=O)[C@@H](c2cn3c4c(cccc24)CCC3)[C@@H]1c1c[nH]c2ccccc12 [Tivantinib] (100 nM)", "CAL-51", 115),
    ("c1ccc([C@H]2CN3CCSC3=N2)cc1 [Levamisole] (1 nM)", "CAL-51", 69.9),
    ("Cn1c(=O)n(-c2ccc(C(C)(C)C#N)cc2)c2c3cc(-c4cnc5ccccc5c4)ccc3ncc21 [Dactolisib] (100 nM)", "CAL-51", 31.7),
    ("Cn1cncc1[C@@](N)(c1ccc(Cl)cc1)c1ccc2c(c1)c(-c1cccc(Cl)c1)cc(=O)n2C [Tipifarnib] (10 nM)", "CAL-51", 121),
    ("CC[C@]1(O)C[C@H]2CN(CCc3c([nH]c4ccccc34)[C@@](C(=O)OC)(c3cc4c(cc3OC)N(C=O)[C@H]3[C@@](O)(C(=O)OC)[C@H](OC(C)=O)[C@]5(CC)C=CCN6CC[C@]43[C@@H]65)C2)C1 [Vincristine] (0.1 nM)", "CAL-51", 88.2),
    ("Cn1c(=O)n(-c2ccc(C(C)(C)C#N)cc2)c2c3cc(-c4cnc5ccccc5c4)ccc3ncc21 [Dactolisib] (1 nM)", "CAL-51", 83.4),
    ("Cc1ccc(NC(=O)c2ccc(CN3CCN(C)CC3)cc2)cc1Nc1nccc(-c2cccnc2)n1 [Imatinib] (10 nM)", "CAL-51", 107),
    ("Nc1nc(OCc2cc(Br)cs2)c2[nH]cnc2n1 [Lomeguatrib] (1 nM)", "CAL-51", 118),
]
